Where do these numbers come from? They come from patent US20170355757A1.

Target: T1, monkey C5-mmh (monkey, UniProt P01031 19-1676 (human entry), limits assumed)
T1 construct: Expressed with a C-terminal myc-myc-hexahistidine tag
T1 chain: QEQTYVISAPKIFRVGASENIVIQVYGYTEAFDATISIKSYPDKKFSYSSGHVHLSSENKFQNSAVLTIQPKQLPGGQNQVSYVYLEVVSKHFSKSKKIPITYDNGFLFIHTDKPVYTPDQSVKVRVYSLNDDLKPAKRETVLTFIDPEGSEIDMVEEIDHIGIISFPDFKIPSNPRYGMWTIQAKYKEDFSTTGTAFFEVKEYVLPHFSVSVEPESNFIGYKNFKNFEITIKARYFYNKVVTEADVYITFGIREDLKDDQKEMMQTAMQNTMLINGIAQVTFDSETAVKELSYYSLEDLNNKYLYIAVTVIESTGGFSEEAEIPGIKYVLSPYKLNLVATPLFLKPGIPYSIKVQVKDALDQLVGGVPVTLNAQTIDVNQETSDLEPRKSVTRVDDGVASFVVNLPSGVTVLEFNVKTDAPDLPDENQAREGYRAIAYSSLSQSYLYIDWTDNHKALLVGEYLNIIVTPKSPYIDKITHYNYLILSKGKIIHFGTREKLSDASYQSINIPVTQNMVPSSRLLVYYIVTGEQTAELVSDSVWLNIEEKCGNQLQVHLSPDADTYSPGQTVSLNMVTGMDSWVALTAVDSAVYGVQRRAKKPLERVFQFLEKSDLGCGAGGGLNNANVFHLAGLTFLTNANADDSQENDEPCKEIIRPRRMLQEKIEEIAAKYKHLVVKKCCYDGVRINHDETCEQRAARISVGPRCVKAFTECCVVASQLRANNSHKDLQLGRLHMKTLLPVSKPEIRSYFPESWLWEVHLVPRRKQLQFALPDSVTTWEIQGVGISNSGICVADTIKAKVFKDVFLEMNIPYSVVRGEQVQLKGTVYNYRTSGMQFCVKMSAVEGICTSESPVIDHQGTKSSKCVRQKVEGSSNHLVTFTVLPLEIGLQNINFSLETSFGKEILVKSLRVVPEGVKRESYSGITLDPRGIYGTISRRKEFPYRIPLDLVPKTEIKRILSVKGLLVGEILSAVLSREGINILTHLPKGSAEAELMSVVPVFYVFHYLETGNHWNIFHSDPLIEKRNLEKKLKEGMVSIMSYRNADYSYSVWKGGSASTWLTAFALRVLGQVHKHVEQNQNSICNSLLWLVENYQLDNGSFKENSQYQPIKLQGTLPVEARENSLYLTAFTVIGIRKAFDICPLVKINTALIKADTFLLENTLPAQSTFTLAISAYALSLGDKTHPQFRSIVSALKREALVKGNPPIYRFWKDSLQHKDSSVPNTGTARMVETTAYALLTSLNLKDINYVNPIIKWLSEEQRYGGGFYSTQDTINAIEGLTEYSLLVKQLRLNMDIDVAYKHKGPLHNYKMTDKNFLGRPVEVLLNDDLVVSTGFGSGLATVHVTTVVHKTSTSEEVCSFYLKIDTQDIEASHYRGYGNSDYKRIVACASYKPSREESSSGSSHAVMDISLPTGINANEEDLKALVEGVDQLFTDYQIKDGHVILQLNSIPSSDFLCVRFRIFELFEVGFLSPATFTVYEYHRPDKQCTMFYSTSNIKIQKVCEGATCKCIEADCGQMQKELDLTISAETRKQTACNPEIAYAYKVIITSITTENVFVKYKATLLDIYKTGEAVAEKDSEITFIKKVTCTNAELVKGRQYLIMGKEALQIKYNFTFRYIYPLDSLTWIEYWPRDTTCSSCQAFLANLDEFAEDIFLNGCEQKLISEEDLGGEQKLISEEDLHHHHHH
Assay: SPR, mAb captured by anti-hFc, 25C
PARAMETER: Kd (nM)

INSERT INTO results (binder, parameter, readout_value) VALUES
  ('H4H12166P10 (antibody, human IgG4, V domains shown, human IgG4 Fc with S108P hinge mutation) VH: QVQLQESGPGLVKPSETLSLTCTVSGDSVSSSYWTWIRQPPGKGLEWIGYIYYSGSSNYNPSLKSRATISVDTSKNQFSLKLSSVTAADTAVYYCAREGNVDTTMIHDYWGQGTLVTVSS VL: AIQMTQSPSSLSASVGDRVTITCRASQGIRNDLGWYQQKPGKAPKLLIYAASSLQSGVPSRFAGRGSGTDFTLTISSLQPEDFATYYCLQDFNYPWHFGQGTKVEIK', 'Kd', 64.4),
  ('H4H11686N (antibody, human IgG4, V domains shown, also called H2M11686N) VH: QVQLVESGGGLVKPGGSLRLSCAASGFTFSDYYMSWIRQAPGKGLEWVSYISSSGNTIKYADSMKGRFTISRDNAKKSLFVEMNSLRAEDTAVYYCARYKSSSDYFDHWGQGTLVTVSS VL: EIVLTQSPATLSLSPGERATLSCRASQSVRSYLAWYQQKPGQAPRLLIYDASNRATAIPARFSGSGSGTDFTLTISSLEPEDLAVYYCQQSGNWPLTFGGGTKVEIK', 'Kd', 3.11),
  ('H4H11683N (antibody, human IgG4, V domains shown, also called H2M11683N) VH: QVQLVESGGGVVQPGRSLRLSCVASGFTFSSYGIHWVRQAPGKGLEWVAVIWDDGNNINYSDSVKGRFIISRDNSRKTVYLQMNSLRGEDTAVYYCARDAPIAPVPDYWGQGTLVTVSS VL: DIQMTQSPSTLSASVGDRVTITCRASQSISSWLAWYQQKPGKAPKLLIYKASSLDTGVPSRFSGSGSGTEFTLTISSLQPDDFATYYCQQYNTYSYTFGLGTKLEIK', 'Kd', 0.64);
